test.details: HT29 colon tumor cell growth inhibition, primary screen, imaging, high content imaging, 48 h, CellTiter-Glo (AID 771)
condition.summary: HCS imaging cell count, measured here: ATP CellTiter-Glo viability inhibition, at 10 µM, stronger effect = higher value
The whole screen tested about 3,300 compounds, of which about 55 (2%) were called active. Only a selection was taken, and actives are over-represented in it overall.
readout: growth inhibition (%)
Numbers only, in %.

c1ccc2c(c1)[nH]c1c(N3CCSCC3)ncnc12 : 9.84

Below are some compounds; for each one, tell me its growth inhibition.
1. COc1ccc(C(=O)NCCCCCC(=O)O)cc1OC
2. CCCc1[nH]nc2c1C(c1cccc(OC)c1)C(C#N)=C(N)O2 (centres undefined)
3. COc1cccc(C(=O)NCC(=O)n2nc(C)cc2C)c1

Reply:
1: 3.37; 2: 9.76; 3: -15.9

* * *

test.details: HT29 colon tumor cell growth inhibition, primary screen, imaging, high content imaging, 48 h, CellTiter-Glo (AID 771)
condition.summary: HCS imaging cell count, measured here: ATP CellTiter-Glo viability inhibition, at 10 µM, stronger effect = higher value
Screen size: about 3,300 compounds; about 55 (2%) were called active. Only a selection was taken, and actives are over-represented in it overall.
Please provide measured growth inhibition for the entries that follow.
Numbers only, in %.

OCCNc1ncnc2c1c(-c1ccccc1)c(-c1ccccc1)n2Cc1ccco1 : 15.3
COc1ccccc1N1CCN(C2CCN(C(=O)c3cccs3)CC2)CC1 : 11.2
CCc1ccc(NC(=O)CSC2=C(C#N)C(c3ccco3)C3=C(CCCC3=O)N2)cc1 (configuration not stated) : 58.1
CCCc1nc(N2CCOCC2)c(C#N)c2c1CCCC2 : 6.89
CCN(CC)CCN1C(=O)C(=O)/C(=C(/O)c2c(C)[nH]c(C(=O)OC)c2C)C1c1ccccc1 (configuration not stated) : 26.4

Below are some compounds; for each one, tell me its growth inhibition.
1. O=C(O)CC(C(=O)N(c1ccccc1)c1ccccc1)N1CCOCC1 (configuration not stated)
2. CCCCCNC(=O)c1c(N)n(/N=C/c2ccco2)c2nc3ccccc3nc12

Reply:
1. -10.5
2. 5.72

Below are some compounds; for each one, tell me its growth inhibition.
1. N#CC1=C(SCC(=O)c2ccc(Cl)cc2)NC2=C(C(=O)CCC2)C1c1ccco1 (configuration not stated)
2. CCOC(=O)c1c(-c2cccs2)csc1NC(=O)CCCC(=O)O
3. CN(C1CCS(=O)(=O)C1)S(=O)(=O)c1cccc2nsnc12 (configuration not stated)
4. COC(=O)C1CCN(c2nc3ccccc3nc2C(C#N)C(=O)NCCc2ccccc2)CC1 (configuration not stated)

Reply:
1: 78.2; 2: 4.31; 3: 2.06; 4: 5.48

Below are some compounds; for each one, tell me its growth inhibition.
1. C#CCSC1=C(C#N)C(c2cccs2)C(C(=O)OCC)=C(C)N1 (configuration not stated)
2. N#CC1=C(SCC(=O)c2ccccc2)NC2=C(C(=O)CCC2)C1c1ccco1 (configuration not stated)
3. Clc1ccc2[nH]c3c(NCCN4CCOCC4)ncnc3c2c1
4. N=c1c2c(-c3ccccc3)c(-c3ccccc3)n(Cc3ccccc3)c2ncn1CCCn1ccnc1
5. Nc1ccc(Cl)cc1/C(=N/O)c1ccccc1
6. CC1CN(C2CCN(C(=O)c3ccccc3Cl)CC2)CC(C)O1 (configuration not stated)

Reply:
[-5.67, 71.1, 74.8, 97.2, -14.5, -39.5]

Below are some compounds; for each one, tell me its growth inhibition.
1. CCN(CC)CCOC(=O)C1(c2ccc(OC)c(OC)c2)CCCC1
2. N#CC1=C(N)NC(SCc2ccc(Cl)cc2)=C(C#N)C12CCCCC2
3. COCCNC(=O)c1c(N)n(CCC2=CCCCC2)c2nc3ccccc3nc12
4. C=CCn1c(N)c(C(=O)Nc2ccccc2)c2nc3ccccc3nc21
5. CCNC(=O)Nn1c(C)nnc1C
6. O=C1CCC(=O)N1CN(Cc1ccco1)CN1C(=O)CCC1=O
7. CCOC(=O)CSC1=C(C#N)C(c2ccc3c(c2)OCO3)CC(=O)N1 (configuration not stated)
8. Cc1ccc2[nH]c3c(NCCN4CCOCC4)ncnc3c2c1

Reply:
1. -5.14
2. 70.5
3. 20.4
4. 90.8
5. -2.65
6. -19.2
7. 66.1
8. 24.8

Below are some compounds; for each one, tell me its growth inhibition.
1. CCN(CC)CCNc1ncnc2c1[nH]c1ccc(OC)cc12
2. CN(C)CC(O)COc1ccc(-c2ccc(C#N)cc2)cc1 (configuration not stated)

Reply:
[44, 51.9]
